# Target Or Test System: T1, human chemokine (C-C motif) receptor 8 (CCR8) protein (human, UniProt P51685 1-355)
# T1 construct: whole, on cells; also called human CCR8
# Measurement Protocol: cell binding, CCR8-expressing CHO-K1 cells, curve fit
Reported Span values for a set of binders
Provide a numeric answer; units are not to be included.

Would you please look over these solved cases?
Binder	Span
137-H2L3 (antibody, V domains shown, Humanized 137D1H10) VH: EVQLVESGGGLVQPGGSLKLSCAASGFTFNTYAMNWVRQASGKGLEWVGRIRSKANNYATYYADSVKDRFTISRDDSKNTAYLQMNNLKTEDTAVYYCVRDRSRGEDYAMDYWGQGTLVTVSS VL: DIVMTQSPLSLPVTPGEPVSISCRSSKSLLHSNANTYLYWFLQKPGQSPQLLIYRMSNLASGVPDRFSGSGSGTAFTLKISRVEAEDVGVYYCMQHLEYPFTFGQGTKLEIK	27900
137-H3L3 (antibody, V domains shown, Humanized 137D1H10) VH: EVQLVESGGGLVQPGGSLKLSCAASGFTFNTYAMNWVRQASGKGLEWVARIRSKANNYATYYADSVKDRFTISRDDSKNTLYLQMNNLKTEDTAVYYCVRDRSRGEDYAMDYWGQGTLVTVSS VL: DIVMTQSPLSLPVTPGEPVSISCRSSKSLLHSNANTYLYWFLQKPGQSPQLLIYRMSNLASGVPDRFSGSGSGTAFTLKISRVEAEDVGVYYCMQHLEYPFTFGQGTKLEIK	29600

Please look at the following binder next.
Given the binder 137-H3L2 (LM-108) (antibody, V domains shown, Humanized 137D1H10; Detected with anti-human IgG) VH: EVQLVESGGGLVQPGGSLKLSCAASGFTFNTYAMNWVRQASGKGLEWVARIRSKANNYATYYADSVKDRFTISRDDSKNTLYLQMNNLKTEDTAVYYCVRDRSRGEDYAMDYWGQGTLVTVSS VL: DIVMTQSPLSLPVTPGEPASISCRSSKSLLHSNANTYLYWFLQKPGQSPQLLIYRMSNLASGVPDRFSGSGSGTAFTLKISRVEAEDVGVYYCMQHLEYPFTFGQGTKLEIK , what is its reported Span?
28900
